Origin of measurements: patent US20250304620A1

- Test system: Staphylococcus aureus ATCC 25923
- Type: cell-based
Non-standard residues stand in square brackets, D forms with d. Residues, ends and D or L forms follow the SMILES beside them. d2Nal = N[C@H](Cc1ccc2ccccc2c1)C(=O)O
Quantity Measured: MIC Staphylococcus aureus ATCC 25923 (µg/mL)
Entry rule: numbers only, all in µg/mL.

CC(=O)N[C@H](CCCNC(=N)N)C(=O)N[C@H](CCCCN)C(=O)N[C@H](CC(C)C)C(=O)N[C@H](CC(C)C)C(=O)N[C@H](Cc1ccccc1)C(=O)N[C@H](CCCNC(=N)N)C(=O)N[C@H](CC(C)C)C(=O)N[C@H](CCCCN)C(=O)N[C@H](Cc1ccccc1)C(=O)N[C@H](CCCNC(=N)N)C(=O)N[C@H](CCCCN)C(N)=O [LV-2] (Ac-[dR][dK][dL][dL][dF][dR][dL][dK][dF][dR][dK]-NH2)	2

**Q:** So what's the measured MIC Staphylococcus aureus ATCC 25923 for this one? CC(=O)N[C@H](CCCNC(=N)N)C(=O)N[C@H](CCCNC(=N)N)C(=O)N[C@H](CC(C)C)C(=O)N[C@H](CC(C)C)C(=O)N[C@H](Cc1ccc2ccccc2c1)C(=O)N[C@H](CCCNC(=N)N)C(=O)N[C@H](CC(C)C)C(=O)N[C@H](CCCNC(=N)N)C(=O)N[C@H](Cc1ccc2ccccc2c1)C(=O)N[C@H](CCCNC(=N)N)C(=O)N[C@H](CCCNC(=N)N)C(N)=O [LV-1] (Ac-[dR][dR][dL][dL][d2Nal][dR][dL][dR][d2Nal][dR][dR]-NH2)
**A:** 1

###

Below, each of the molecules is paired with its reported Average survival times (Days) value.
- Test system: Pseudomonas aeruginosa ATCC 27853
- Assay: Injectable formulations on mice infected with peritonitis
- Type: in vivo, ICR mice
- Particulars: 1 mg/kg via tail vein, twice a day for 3 days, observed for 14 d, n = 10
Marks after values point to notes of the source that are not given here. Non-standard residues stand in square brackets, D forms with d. Residues, ends and D or L forms follow the SMILES beside them. d2Nal = N[C@H](Cc1ccc2ccccc2c1)C(=O)O

CC(=O)N[C@H](CCCNC(=N)N)C(=O)N[C@H](CCCCN)C(=O)N[C@H](CC(C)C)C(=O)N[C@H](CC(C)C)C(=O)N[C@H](Cc1ccc2ccccc2c1)C(=O)N[C@H](CCCNC(=N)N)C(=O)N[C@H](CC(C)C)C(=O)N[C@H](CCCCN)C(=O)N[C@H](Cc1ccccc1)C(=O)N[C@H](CCCNC(=N)N)C(=O)N[C@H](CCCCN)C(N)=O [LV-4] (Ac-[dR][dK][dL][dL][d2Nal][dR][dL][dK][dF][dR][dK]-NH2)	9.9**** Days

Okay, next one:
**Q:** // map CC(=O)N[C@H](CCCNC(=N)N)C(=O)N[C@H](CCCCN)C(=O)N[C@H](CC(C)C)C(=O)N[C@H](CC(C)C)C(=O)N[C@H](Cc1ccc2ccccc2c1)C(=O)N[C@H](CCCNC(=N)N)C(=O)N[C@H](CC(C)C)C(=O)N[C@H](CCCCN)C(=O)N[C@H](Cc1ccc2ccccc2c1)C(=O)N[C@H](CCCNC(=N)N)C(=O)N[C@H](CCCCN)C(N)=O [LV-20] (Ac-[dR][dK][dL][dL][d2Nal][dR][dL][dK][d2Nal][dR][dK]-NH2) to recorded Average survival times (Days) (system: Pseudomonas aeruginosa ATCC 27853)
**A:** 10.4**** Days

###

- Tested on: Corynebacterium ATCC 7715
- Assay type: cell-based
Non-standard residues stand in square brackets, D forms with d. Residues, ends and D or L forms follow the SMILES beside them. dPhe(3,4-F2) = N[C@H](Cc1ccc(F)c(F)c1)C(=O)O; d2Nal = N[C@H](Cc1ccc2ccccc2c1)C(=O)O
Quantity Measured: MIC Corynebacterium ATCC 7715 (µg/mL)
A number alone suffices; assume µg/mL.

Please review the entries below; each comes with its answer.
CC(=O)N[C@H](CCCNC(=N)N)C(=O)N[C@H](CCCNC(=N)N)C(=O)N[C@H](CC(C)C)C(=O)N[C@H](CC(C)C)C(=O)N[C@H](Cc1ccc2ccccc2c1)C(=O)N[C@H](CCCNC(=N)N)C(=O)N[C@H](CC(C)C)C(=O)N[C@H](CCCNC(=N)N)C(=O)N[C@H](Cc1ccc2ccccc2c1)C(=O)N[C@H](CCCNC(=N)N)C(=O)N[C@H](CCCNC(=N)N)C(N)=O [LV-1] (Ac-[dR][dR][dL][dL][d2Nal][dR][dL][dR][d2Nal][dR][dR]-NH2)	2
CC(=O)N[C@H](CCCNC(=N)N)C(=O)N[C@H](CCCCN)C(=O)N[C@H](CC(C)C)C(=O)N[C@H](CC(C)C)C(=O)N[C@H](Cc1ccc(F)c(F)c1)C(=O)N[C@H](CCCCN)C(=O)N[C@H](CC(C)C)C(=O)N[C@H](CCCCN)C(=O)N[C@H](Cc1ccc(F)c(F)c1)C(=O)N[C@H](CCCCN)C(=O)N[C@H](CCCNC(=N)N)C(N)=O [LV-6] (Ac-[dR][dK][dL][dL][dPhe(3,4-F2)][dK][dL][dK][dPhe(3,4-F2)][dK][dR]-NH2)	2

Read the next record carefully.
**Q:** Entry CC(=O)N[C@H](CCCNC(=N)N)C(=O)N[C@H](CCCNC(=N)N)C(=O)N[C@H](CC(C)C)C(=O)N[C@H](CC(C)C)C(=O)N[C@H](Cc1ccc2ccccc2c1)C(=O)N[C@H](CCCCN)C(=O)N[C@H](CC(C)C)C(=O)N[C@H](CCCCN)C(=O)N[C@H](Cc1ccc2ccccc2c1)C(=O)N[C@H](CCCCN)C(=O)N[C@H](CCCNC(=N)N)C(N)=O [LV-24] (Ac-[dR][dR][dL][dL][d2Nal][dK][dL][dK][d2Nal][dK][dR]-NH2) has what MIC Corynebacterium ATCC 7715?
**A:** 4

###

- Tested on: Staphylococcus aureus ATCC 25923
- Type: cell-based
Non-standard residues stand in square brackets, D forms with d. PEG2000 = polyethylene glycol 2000, conjugated to the N-terminus; PEG4000 = polyethylene glycol 4000, conjugated to the C-terminus; PEG200 = polyethylene glycol 200, conjugated to the C-terminus; PEG500 = polyethylene glycol 500, conjugated to the C-terminus; 2Nal = N[C@@H](Cc1ccc2ccccc2c1)C(=O)O; PEG1000 = polyethylene glycol 1000
Quantity Measured: MIC Staphylococcus aureus ATCC 25923 (µg/mL)
Express it in µg/mL; write the number only.

**Q:** Any idea what its MIC Staphylococcus aureus ATCC 25923 is? The substance is Ac-RKLLXRLKXRK-PEG1000 [LV-28] (Ac-RKLL[2Nal]RLK[2Nal]RK-PEG1000) [polyethylene glycol 1000 conjugated to C-terminal; X=3-(2-naphthyl)-alanine]
**A:** 2

**Q:** Reported MIC Staphylococcus aureus ATCC 25923 for Ac-RKLLXRLKXRK-PEG200 [LV-26] (Ac-RKLL[2Nal]RLK[2Nal]RK-PEG200) [polyethylene glycol 200 conjugated to C-terminal; X=3-(2-naphthyl)-alanine] : what is it?
**A:** 1

**Q:** // returns reported MIC Staphylococcus aureus ATCC 25923 for input PEG2000-RKLLXRLKXRK-NH2 [LV-29] (PEG2000-RKLL[2Nal]RLK[2Nal]RK-NH2) [polyethylene glycol 2000 conjugated to N-terminal; X=3-(2-naphthyl)-alanine]
**A:** 2

**Q:** Dear colleague, I am looking for the recorded MIC Staphylococcus aureus ATCC 25923 of the following substance: Ac-RKLLXRLKXRK-PEG500 [LV-27] (Ac-RKLL[2Nal]RLK[2Nal]RK-PEG500) [polyethylene glycol 500 conjugated to C-terminal; X=3-(2-naphthyl)-alanine]
**A:** 1

**Q:** Field request: MIC Staphylococcus aureus ATCC 25923 | item: Ac-RKLLXRLKXRK-PEG4000 [LV-30] (Ac-RKLL[2Nal]RLK[2Nal]RK-PEG4000) [polyethylene glycol 4000 conjugated to C-terminal; X=3-(2-naphthyl)-alanine]
**A:** 2

###

- System: Pseudomonas aeruginosa ATCC 27853
- Format: cell-based
Non-standard residues stand in square brackets, D forms with d. PEG2000 = polyethylene glycol 2000, conjugated to the N-terminus; PEG4000 = polyethylene glycol 4000, conjugated to the C-terminus; PEG200 = polyethylene glycol 200, conjugated to the C-terminus; PEG500 = polyethylene glycol 500, conjugated to the C-terminus; 2Nal = N[C@@H](Cc1ccc2ccccc2c1)C(=O)O; PEG1000 = polyethylene glycol 1000
// reported MIC Pseudomonas aeruginosa ATCC 27853 for each item listed

Ac-RKLLXRLKXRK-PEG200 [LV-26] (Ac-RKLL[2Nal]RLK[2Nal]RK-PEG200) [polyethylene glycol 200 conjugated to C-terminal; X=3-(2-naphthyl)-alanine]	4 µg/mL
Ac-RKLLXRLKXRK-PEG4000 [LV-30] (Ac-RKLL[2Nal]RLK[2Nal]RK-PEG4000) [polyethylene glycol 4000 conjugated to C-terminal; X=3-(2-naphthyl)-alanine]	2 µg/mL
Ac-RKLLXRLKXRK-PEG500 [LV-27] (Ac-RKLL[2Nal]RLK[2Nal]RK-PEG500) [polyethylene glycol 500 conjugated to C-terminal; X=3-(2-naphthyl)-alanine]	1 µg/mL
Ac-RKLLXRLKXRK-PEG1000 [LV-28] (Ac-RKLL[2Nal]RLK[2Nal]RK-PEG1000) [polyethylene glycol 1000 conjugated to C-terminal; X=3-(2-naphthyl)-alanine]	2 µg/mL

**Q:** Query for Pseudomonas aeruginosa ATCC 27853: what MIC Pseudomonas aeruginosa ATCC 27853 does the record show for PEG2000-RKLLXRLKXRK-NH2 [LV-29] (PEG2000-RKLL[2Nal]RLK[2Nal]RK-NH2) [polyethylene glycol 2000 conjugated to N-terminal; X=3-(2-naphthyl)-alanine] ?
**A:** 4 µg/mL
